I'd appreciate it if you could supply activity values for the items below.
system: ATM-L TALEN L3-1 (in cells) A252T,Q505K,Q745P (full TALE construct numbering) (synthetic construct); experiment: cell_activity; settings: U2OS

Answered examples (3):
SEQUENCE_CHAIN | activity
TGAATTGGGATGCTGTTT (double strand) [ATM left half-site on-target] | 7.04 % indels
GGAAATGGGATACTGAGT (double strand) [OffA17 left half-site] | < 0.001 % indels
TAGATTGAAATGCTGTTT (double strand) [OffA23 left half-site] | < 0.001 % indels

Now look at this entry.
Q: Quick one: activity of TGAATAGGAAATATATTT (double strand) [OffA1 left half-site] ?
Ans: < 0.001 % indels

The measured values listed here are drawn from patent US20240200044.
